Consider molecules characterized by their IC50 with SYK (Homo sapiens, UniProt P43405).
Counter-ions that a name gives are not always drawn.

Sample records with IC50:
molecule: COc1cccc2cc(-c3cnc(N)c4cnc(N[C@@H]5CCCC[C@@H]5N)nc34)[nH]c12 (relative stereo)
result: < 100 nM
--
molecule: Cn1cc(-c2cnc(N)c3cnc(N4CCC(CO)CC4)nc23)cn1
result: 1000 to 50000 nM
--
molecule: COc1ccc2c(-c3cncc4cnc(N[C@H]5CCCC[C@H]5N)nc34)c[nH]c2c1 (stereo in doubt)
result: < 100 nM
--
molecule: N[C@H]1COCC[C@H]1Nc1ncc2cncc(-c3c[nH]c4ccccc34)c2n1
result: < 100 nM
--
molecule: Cc1cccc2[nH]c(-c3cncc4cnc(N[C@H]5CCCC[C@H]5N)nc34)cc12 (stereo in doubt)
result: 1000 to 50000 nM
--
molecule: Nc1ncc(-c2cccc(-n3nccn3)c2)c2nc(N[C@H]3CCCC[C@H]3N)ncc12 (relative stereo)
result: 100 to 1000 nM

Consider the record given below.
Tell me its IC50 on SYK (Homo sapiens, UniProt P43405): Cn1cc(-c2cncc3cnc(N[C@@H]4CCCC[C@@H]4N)nc23)cn1 [Compound A2, hydrochloride] 100 to 1000 nM
